Some compounds, each annotated with its measured Activity.
system: Ancylostoma ceylanicum; assay: Compound was evaluated for the biological activity against Ancylostoma ceylanicum in hamsters at the 250 mg/kg; format: functional
Entry rule: numbers only, all in %.

Guide cases for Activity, answers given:
{"Compound String": "COC(=O)Nc1nc2cc(C(=O)Nc3ccc(S(=O)(=O)c4ccc(NC(=O)c5ccc6[nH]c(NC(=O)OC)nc6c5)cc4)cc3)ccc2[nH]1", "Tested On": "Ancylostoma ceylanicum", "Activity (%)": 48.2}
{"Compound String": "CCOC(=O)Nc1nc2cc(C(=O)Nc3ccccc3)ccc2[nH]1", "Tested On": "Ancylostoma ceylanicum", "Activity (%)": 50}
{"Compound String": "COC(=O)Nc1nc2cc(C(=O)NCCNC(=O)c3ccc4[nH]c(NC(=O)OC)nc4c3)ccc2[nH]1", "Tested On": "Ancylostoma ceylanicum", "Activity (%)": 50}
{"Compound String": "CNC(=O)c1ccc2[nH]c(NC(=O)OC)nc2c1", "Tested On": "Ancylostoma ceylanicum", "Activity (%)": 95}

Would you kindly look at the next entry?
Asked: Give its Activity value. Item: "CCCCCCCCNC(=O)c1ccc2[nH]c(NC(=O)OC)nc2c1"
Given back: 100

* * *

tested on: Ancylostoma ceylanicum; assay: Compound was evaluated for the biological activity against Ancylostoma ceylanicum in hamsters at the 250 mg/kg; type: functional
Quantity Name: Activity (%)
Entry rule: numbers only, all in %.

{"Compound String": "COC(=O)Nc1nc2cc(C(=O)NCCc3ccc(NC(=O)c4ccc5[nH]c(NC(=O)OC)nc5c4)cc3)ccc2[nH]1", "Tested On": "Ancylostoma ceylanicum", "Reported": 50}
{"Compound String": "CCN(CC)C(=O)c1ccc2[nH]c(NC(=O)OC)nc2c1", "Tested On": "Ancylostoma ceylanicum", "Reported": 100}
{"Compound String": "COC(=O)Nc1nc2cc(C(=O)N(C(C)C)C(C)C)ccc2[nH]1", "Tested On": "Ancylostoma ceylanicum", "Reported": 100}

Asked: Give its Activity value. Item: "CCCCNC(=O)c1ccc2[nH]c(NC(=O)OC)nc2c1"
Given back: 100

Asked: Next: "COC(=O)Nc1nc2cc(C(=O)N3CCN(c4ccccn4)CC3)ccc2[nH]1"
Given back: 100

Asked: Next: "COC(=O)Nc1nc2cc(C(=O)Nc3ccccn3)ccc2[nH]1"
Given back: 95

Asked: Next: "COC(=O)Nc1nc2cc(C(=O)NC3CCCCC3)ccc2[nH]1"
Given back: 100

Asked: Next: "COC(=O)Nc1nc2cc(C(=O)NC3=NCCS3)ccc2[nH]1"
Given back: 100

Asked: Next: "COC(=O)Nc1nc2cc(C(=O)Nc3ccncc3)ccc2[nH]1"
Given back: 75

Asked: Next: "COC(=O)Nc1nc2cc(C(=O)N3CCOCC3)ccc2[nH]1"
Given back: 100

Asked: Next: "COC(=O)Nc1nc2cc(C(=O)N3CCCCC3)ccc2[nH]1"
Given back: 100

* * *

tested on: Ancylostoma ceylanicum; assay: Compound was evaluated for the biological activity against Ancylostoma ceylanicum in hamsters at the 250 mg/kg; assay type: functional
Some molecules, each annotated with its measured Activity.
Entry rule: numbers only, all in %.

Guide cases for Activity, answers given:
{"Compound String": "COC(=O)Nc1nc2cc(C(=O)NCc3ccco3)ccc2[nH]1", "Unit Text": "%", "Activity": 100}
{"Compound String": "COC(=O)Nc1nc2cc(C(=O)Nc3ccc(Sc4ccc(NC(=O)c5ccc6[nH]c(NC(=O)OC)nc6c5)cc4)cc3)ccc2[nH]1", "Unit Text": "%", "Activity": 48.2}
{"Compound String": "COC(=O)Nc1nc2cc(C(=O)Nc3cccc(C)n3)ccc2[nH]1", "Unit Text": "%", "Activity": 100}
{"Compound String": "CCCN(CCC)C(=O)c1ccc2[nH]c(NC(=O)OC)nc2c1", "Unit Text": "%", "Activity": 100}

Would you kindly look at the next entry?
Asked: Give its Activity value. Item: "COC(=O)Nc1nc2cc(C(=O)Nc3ncc(C)s3)ccc2[nH]1"
Given back: 100
